- target_entity: ICE (Homo sapiens, UniProt P29466)
- Sequence (P29466 120-297 limits assumed): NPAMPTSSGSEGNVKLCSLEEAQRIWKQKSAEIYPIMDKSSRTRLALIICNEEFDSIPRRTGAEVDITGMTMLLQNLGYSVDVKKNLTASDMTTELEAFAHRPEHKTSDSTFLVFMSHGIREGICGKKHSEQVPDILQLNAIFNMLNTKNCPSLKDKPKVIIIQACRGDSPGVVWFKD
- Sequence (P29466 317-404 limits assumed): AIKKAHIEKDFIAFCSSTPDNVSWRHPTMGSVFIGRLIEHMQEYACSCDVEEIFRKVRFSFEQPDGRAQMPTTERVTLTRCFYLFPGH
- assay_details: Enzyme assay with UV-visible substrate (visible ICE assay, Succinyl-Tyr-Val-Ala-Asp-pNitroanilide)
- Type: biochemical
- condition_summary: Table 17
pKi: −log10 of the molar value.
measure: pKi

In [3]: df
Out[3]:
                                   compound  reported_measurement
0  O=C[C@H](CC(=O)O)NC(=O)[C@@H]1CCCN2C(=O)CCN(NC(=O)c3cc4ccccc4[nH]3)C(=O)N12 [Compound 1075]                  6.92

a = COc1ccc(C(=O)C(=O)N[C@H]2CN(C(C)=O)c3ccccc3N(CC(=O)N[C@H](C=O)CC(=O)O)C2=O)cc1 [Compound 704]
b = COc1cc(C(=O)C(=O)NN2CCC(=O)N3CCC[C@@H](C(=O)N[C@H](C=O)CC(=O)O)N3C2=O)cc(OC)c1OC [Compound 1124]
c = CC(=O)N1C[C@H](NC(=O)/C=C/c2ccc3c(c2)OCO3)C(=O)N(CC(=O)N[C@H](C=O)CC(=O)O)c2ccccc21 [Compound 708]
Qu. Rank entries according to their pKi, from the largest number down. Output spec: labels arranged per the requested ranking.
Ans. a, c, b
(a: 7.52, c: 6.85, b: 6.57)

1 = O=C[C@H](CC(=O)O)NC(=O)[C@@H]1CCCN2C(=O)CCN(NC(=O)C(=O)c3c[nH]c4ccccc34)C(=O)N12 [Compound 1108]
2 = O=C[C@H](CC(=O)O)NC(=O)[C@@H]1CCCN2CCC[C@@H](NC(=O)c3ccccc3)C(=O)N12 [Compound 246b]
Qu. Which numeric pKi is bigger, that of 1 or that of 2 ? Answer with the label corresponding to your selection.
Ans. 1

----------
- target_entity: UniProt:P29466
- Sequence (P29466 120-297 limits assumed): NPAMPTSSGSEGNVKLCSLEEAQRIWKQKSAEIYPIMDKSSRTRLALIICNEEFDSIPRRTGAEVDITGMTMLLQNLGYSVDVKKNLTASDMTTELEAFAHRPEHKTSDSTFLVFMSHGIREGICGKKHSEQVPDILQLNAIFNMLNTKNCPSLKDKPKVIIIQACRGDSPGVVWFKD
- Sequence (P29466 317-404 limits assumed): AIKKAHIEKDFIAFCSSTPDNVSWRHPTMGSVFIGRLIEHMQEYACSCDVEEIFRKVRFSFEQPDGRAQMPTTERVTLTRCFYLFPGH
- assay_details: Enzyme assay with UV-visible substrate (visible ICE assay, Succinyl-Tyr-Val-Ala-Asp-pNitroanilide)
- Type: biochemical
- condition_summary: Table 5
measure: Ki (nM)

                                   compound  measure  reported_measurement
0  O=C[C@H](CC(=O)O)NC(=O)[C@@H]1CCCN2C(=O)CC[C@H](NC(=O)c3ccc(O)cc3)C(=O)N12 [Compound 456]       Ki                   4.5

A = CNC(=O)Nc1ccc(C(=O)N[C@H]2CCC(=O)N3CCC[C@@H](C(=O)N[C@H](C=O)CC(=O)O)N3C2=O)cc1 [Compound 489]
B = O=C[C@H](CC(=O)O)NC(=O)[C@@H]1CCCN2CCC[C@H](NC(=O)c3ccccc3)C(=O)N12 [Compound 246]
C = CC(=O)N[C@H]1CCC(=O)N2CCC[C@@H](C(=O)N[C@H](C=O)CC(=O)O)N2C1=O [Compound 214c]
D = O=C[C@H](CC(=O)O)NC(=O)CN1C(=O)[C@@H](NC(=O)c2ccccc2)CN(C(=O)c2ccccc2)c2ccccc21 [Compound 605c]
E = CC(=O)Nc1ccccc1C(=O)N[C@H]1CCC(=O)N2CCC[C@@H](C(=O)N[C@H](C=O)CC(=O)O)N2C1=O [Compound 430]
Qu. Sort entries by Ki from minimum to maximum value. List the labels in the requested order.
Ans. A, B, E, D, C

a = O=C[C@H](CC(=O)O)NC(=O)[C@@H]1CCCN2C(=O)CC[C@H](NC(=O)c3cnc4ccccc4c3)C(=O)N12 [Compound 436]
b = CC(C)C(=O)Nc1ccc(C(=O)N[C@H]2CCC(=O)N3CCC[C@@H](C(=O)N[C@H](C=O)CC(=O)O)N3C2=O)cc1 [Compound 484]
Qu. Of the two listed items, a and b , which carries the larger Ki figure? Lab log: write the label of the selected item as the result.
Ans. a
